// reported polymerase ribozyme fitness (log ratio) for each item listed
B1: TPR t1 (parent)
chain: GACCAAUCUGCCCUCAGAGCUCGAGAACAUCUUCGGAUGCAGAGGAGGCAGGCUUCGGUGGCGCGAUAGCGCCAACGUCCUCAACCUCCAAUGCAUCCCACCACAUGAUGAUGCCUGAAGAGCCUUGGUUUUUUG

Variants of: B1
experimental protocol: polymerase ribozyme fitness, log enrichment relative to wild type (log ratio); higher = more active; in vitro selection for triplet polymerase activity

>  <sequence data>
GACCAAUCUGCCCUCAGAGCUCGAGAACAUCUUCGGAUGCAGAUGAGGCAGGCUUCGGUGGCGCGAUAGCCCCAACGUCCUCAACCUCCAAUACAUCCCACCACAUGAUGAUGCCUGAAGAGCCUUGGUUUUUUG [G44U G71C G93A]

>  <measurement label>
polymerase ribozyme fitness (log ratio)

>  <val>
-3.04

$$$$
>  <sequence data>
GACCAAUCUGCCCUCAGAGCUCGAGAACAUCUUCGGAUGCAGAGGAGGCAGGCUUCGGUGGCUCGAUAGCGCCAACGCCCUCAACCUCCAAUGCAUCCCACCACAUGGUGAUGCCUGAAGAGCCUUGGUUUUUUG [G63U U78C A108G]

>  <measurement label>
polymerase ribozyme fitness (log ratio)

>  <val>
-6.17

$$$$
>  <sequence data>
GAUCAAUCUGCCCUCAGAGCUCGAGAACAUCUUCGGAUGCAGAGGAGGCAGGCUUCGGUGGCGCGAUAGCGCCAACGUCCUCAACCUCCAAUCCAUCCCACCACAUGAUGAAGCCUGAAGAGGCUUGGUUUUUUG [C3U G93C U112A C123G]

>  <measurement label>
polymerase ribozyme fitness (log ratio)

>  <val>
-1.14

$$$$
>  <sequence data>
GACCAAUCUGACCUCAGAGCUCGAGAACAUCUUCGGAUGCAGAGGAGGCAGGCUUCGGUGGCGCGAUAGCGCCAACGUCCUCAACCUCCAAUGCAUCCCACCACAUGAUGAUGCGUGAAGAGCCUUGGUUUUUUG [C11A C115G]

>  <measurement label>
polymerase ribozyme fitness (log ratio)

>  <val>
-3.42

$$$$

Which measured polymerase ribozyme fitness (log ratio) value corresponds to GACCAAUCUGCCCUCAGAGCUCGAGAACGUCUUCGGGUGUAGAGGAGGCAGGCUUCGGUGCCGCGAUAGCGCCAACGUCCUCAACCUCCAAUGCAUCCCACCACAUGAUGAUGCCUGAAGAGCCUUUGUUUUUUG [A29G A37G C40U G61C G127U] ?
-4.48

Which measured polymerase ribozyme fitness (log ratio) value corresponds to GACCAAUCUGCCAUCAGAGCUCGAGAACAUCUUCGGAUGCAGAGGGGGCAGGCUUCGGUGGCCCGAUAGCGCCAACGUCCUCAACCUCCAAUGCAUCCCACCACAUGAUGAUGCCUGAAGAGCCUUGGUUUUUUG [C13A A46G G63C] ?
-2.95

Which measured polymerase ribozyme fitness (log ratio) value corresponds to GACCAAUCUGCCCUCAGAGCUCGAGAACAUCUUCGGAUGCAGAGGAGGCAGGCUUCGGGGGCGCGAUAGCGCCAACGUCCUCAACCUCAAAUGCAUCCCACCACAUGAUGAUGCCUGAAGGGCCUUGGUUUUUUG [U59G C89A A121G] ?
0.508

Which measured polymerase ribozyme fitness (log ratio) value corresponds to GACCAAUCUGCCCUCAGAGCUCGAGAACAUCUUCGGAUGCAGAAGAGGCAGGCUUCGGUGGCGCGAUAGCGGCAACGUACUCUACCUCCAAUGCAUCCCACCACAUGAUGAGGCCUGAAGAACCUUGGUUUCUUG [G44A C72G C79A A83U U112G G122A U132C] ?
-6.81
